The reported numbers originate from PubChem BioAssay AID1159580.

compounds and their reported normalized growth
- test method notes: chemical genetic growth profiling, strain panel (AID 1159580);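 also: tested at 20 µM; growth read once vehicle control cultures reached saturation at 30 °C; 1 = growth at the plate median or of vehicle wells; lower values mean less growth of the strain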
- condition context: S. cerevisiae deletion strains, growth OD, locus YBR171W, strain sec66, hits give low values
In all, about 5,500 compounds went through this assay and about 2,000 (36%) were called active. About 18% were inconclusive and are not listed. The list shows a part of the results.
reported property: normalized growth

>>> df
                                    compound  endpoint_value
 0  CCCCOc1cc(CC2CNC(=O)N2)ccc1OC (stereo unspecified)           0.984
 1  CC(=O)Oc1cc(-c2coc3cc(OC(C)=O)c(OC(C)=O)c(OC(C)=O)c3c2=O)cc(OC(C)=O)c1OC(C)=O           0.936
 2  CCOC(=O)C1C(C=C(C)C)C1(C)C (stereo unspecified)               1
 3                    O=c1c2ccccc2oc2ccccc12           0.897
 4  CC(=O)CC(c1ccccc1)c1c(O)c2ccccc2oc1=O (stereo unspecified)           0.991
 5  COc1ccc(-c2cc(=O)c3c(OC(C)=O)cc(OC(C)=O)cc3o2)cc1           0.996
 6                            COc1c(O)cccc1O            1.03
 7  COc1cc([C@@H]2c3cc4c(cc3[C@H](OC(C)=O)[C@H]3COC(=O)[C@H]23)OCO4)cc(OC)c1OC            1.02
 8  CC1(C)O[C@@H]2CC3C4C[C@H](F)C5=CC(=O)C=CC5(C)C4C(O)CC3(C)[C@]2(C(=O)CO)O1 (stereo partly specified)           0.985
 9  CC(=O)Oc1ccc(-c2cc(=O)c3c(OC(C)=O)cc(OC(C)=O)cc3o2)cc1           0.955
10                  O=C(O)c1cc(=O)c2ccccc2o1           0.965

###

compounds and their reported normalized growth
- test method notes: chemical genetic growth profiling, strain panel (AID 1159580);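 also: tested at 20 µM; growth read once vehicle control cultures reached saturation at 30 °C; 1 = growth at the plate median or of vehicle wells; lower values mean less growth of the strain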
- condition context: S. cerevisiae deletion strains, growth OD, locus YCR088W, strain abp1, hits give low values
Screen size: about 5,500 compounds; about 2,000 (36%) were called active. Not shown: some 18% with an inconclusive outcome. The list shows a part of the results.

compound	normalized growth
Cc1cc2cc3c(C)cc(=O)oc3c(C)c2o1	0.987
CC(=O)O[C@@H]1CC2C(C)(C)[C@H](O)C[C@H](O)[C@]2(C)C2CC[C@@]3(C)[C@H](c4ccoc4)OC(=O)[C@H]4O[C@]43[C@@]21C (stereo partly specified)	0.995
Nc1nc(N)c2nc(-c3ccccc3)c(N)nc2n1	0.992
CC1=NCCc2c1[nH]c1cc(O)ccc21	0.99
CCN(CC)CCNc1ccc(CO)c2sc3ccccc3c(=O)c12	1.01
CC(=O)O[C@H]1C[C@@]2(C)[C@H](c3ccoc3)OC(=O)[C@H]3O[C@]32[C@@]2(C)C1[C@]1(C)C(C[C@H]2OC(C)=O)C(C)(C)[C@H](OC(C)=O)C[C@@H]1OC(C)=O (stereo partly specified)	0.99
COc1cccc2c1cc([N+](=O)[O-])c1c(C(=O)O)cc3c(c12)OCO3	1.02
CC(=O)O[C@@H]1CC2C(C)(C)C(=O)CC[C@]2(C)C2CC[C@@]3(C)[C@H](c4ccoc4)OC(=O)C4OC43[C@@]21C (stereo partly specified)	0.973
COc1ccc(-c2cc(=O)c3ccccc3o2)cc1OC	0.929
CCCCCCCCCCCCCCCC[n+]1ccccc1	0.0584
CCCCOc1cc(CC2CNC(=O)N2)ccc1OC (stereo unspecified)	0.987
Cn1c(=O)c2[nH]c(C3CCCC3)nc2n(C)c1=O	1
COc1cc([C@@H]2c3cc4c(cc3[C@H](OC(C)=O)[C@H]3COC(=O)[C@H]23)OCO4)cc(OC)c1OC	1.01
N[C@H](CO)Cc1ccccc1	1.01
CC(=O)Oc1c(-c2ccccc2)oc2c(CC=C(C)C)c3c(c(OC(C)=O)c2c1=O)C=CC(C)(C)O3	1.01
O=C(/C=C/c1ccccc1)c1ccc(O)cc1	0.157
CC(=O)N(O)CCCCCNC(=O)CCC(=O)N(O)CCCCCNC(=O)CCC(=O)N(O)CCCCCN	1.02
NS(=O)(=O)c1cc2c(cc1C(F)(F)F)NCNS2(=O)=O	0.999
CC(C)c1ccc2c(c1O)CC[C@H]1C3=C(CC[C@]21C)C(=O)OC3	0.933
O=c1c2ccccc2[se]n1-c1ccccc1	0.0595
Nc1nnc(-c2cccc(Cl)c2Cl)c(N)n1	1.02
